# method.description: Inhibition of porcine brain tubulin polymerization incubated for 80 mins by fluorescence based spectrophotometry
# Design: species or system Sus scrofa
result.type: IC50 (µM)
Numbers only, in µM.

# get_value(readout='IC50', item= COc1ccc(C2(c3cc(OC)c(OC)c(OC)c3)CC(c3ccc(Cl)cc3)=NO2)cc1O (stereo unspecified) ) 30.7
